B1: library; a variant is named by its letters at N, in order (parent)
chain: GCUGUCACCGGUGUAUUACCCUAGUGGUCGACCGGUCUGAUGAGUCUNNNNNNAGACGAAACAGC

Variants of: B1
protocol-description: normalized RNA/DNA level without ligand (relative to sTRSVctl = 100) (log10 (% of sTRSVctl)); ligand: hypoxanthine (xanthine aptamer); higher = less ribozyme self-cleavage, higher mRNA level
recorded-conditions: HEK293T, reporter: mCherry (pCS4076), ligand present: no
experimental-readout: normalized RNA/DNA level without ligand (log10)

The examples below pair each entry with its known result.
| primary-sequence | endpoint-result |
| --- | --- |
| GCUGUCACCGGUGUAUUACCCUAGUGGUCGACCGGUCUGAUGAGUCUUGAGUAAGACGAAACAGC [UGAGUA] | 1.81 |
| GCUGUCACCGGUGUAUUACCCUAGUGGUCGACCGGUCUGAUGAGUCUAAAGCCAGACGAAACAGC [AAAGCC] | 1.82 |
| GCUGUCACCGGUGUAUUACCCUAGUGGUCGACCGGUCUGAUGAGUCUGGAUACAGACGAAACAGC [GGAUAC] | 1.73 |
| GCUGUCACCGGUGUAUUACCCUAGUGGUCGACCGGUCUGAUGAGUCUCUAUAAAGACGAAACAGC [CUAUAA] | 1.8 |
| GCUGUCACCGGUGUAUUACCCUAGUGGUCGACCGGUCUGAUGAGUCUUCACCUAGACGAAACAGC [UCACCU] | 1.94 |

Record request: normalized RNA/DNA level without ligand (log10) value, item GCUGUCACCGGUGUAUUACCCUAGUGGUCGACCGGUCUGAUGAGUCUUCCCAAAGACGAAACAGC [UCCCAA]
1.77

Record request: normalized RNA/DNA level without ligand (log10) value, item GCUGUCACCGGUGUAUUACCCUAGUGGUCGACCGGUCUGAUGAGUCUCUUAAGAGACGAAACAGC [CUUAAG]
1.69
